Provide the recorded Stabilization ratio for the entries that follow.
# Tested on: HCT116 cells
# Experiment Notes: Combination mutation analysis, TMP dose response MFI
# Type: cell-based, human
# Settings: TMP dose (log) −6.86
# Text: Mutations identified by random mutagenesis were combined with mutations identified by site directed mutagenesis.
Provide a numeric answer; units are not to be included.

Request the reported Stabilization ratio associated with OT-hDHFRC-031: combination mutant hDHFR (N127Y, Y122I) (protein, UniProt P00374 1-187, looked up, variant N127Y Y122I) Dihydrofolate reductase: MVGSLNCIVAVSQNMGIGKNGDLPWPPLRNEFRYFQRMTTTSSVEGKQNLVIMGKKTWFSIPEKNRPLKGRINLVLSRELKEPPQGAHFLSRSLDDALKLTEQPELANKVDMVWIVGGSSVIKEAMYHPGHLKLFVTRIMQDFESDTFFPEIDLEKYKLLPEYPGVLSDVQEEKGIKYKFEVYEKND
1.14

Request the reported Stabilization ratio associated with OT-hDHFRC-030: combination mutant hDHFR (Y122I, M140I) (protein, UniProt P00374 1-187, looked up, variant Y122I M140I) Dihydrofolate reductase: MVGSLNCIVAVSQNMGIGKNGDLPWPPLRNEFRYFQRMTTTSSVEGKQNLVIMGKKTWFSIPEKNRPLKGRINLVLSRELKEPPQGAHFLSRSLDDALKLTEQPELANKVDMVWIVGGSSVIKEAMNHPGHLKLFVTRIIQDFESDTFFPEIDLEKYKLLPEYPGVLSDVQEEKGIKYKFEVYEKND
1.04

Request the reported Stabilization ratio associated with OT-DHFRC-029: combination mutant hDHFR (I17V, Y122I) (protein, UniProt P00374 1-187, looked up, variant I17V Y122I) Dihydrofolate reductase: MVGSLNCIVAVSQNMGVGKNGDLPWPPLRNEFRYFQRMTTTSSVEGKQNLVIMGKKTWFSIPEKNRPLKGRINLVLSRELKEPPQGAHFLSRSLDDALKLTEQPELANKVDMVWIVGGSSVIKEAMNHPGHLKLFVTRIMQDFESDTFFPEIDLEKYKLLPEYPGVLSDVQEEKGIKYKFEVYEKND
1.13

Request the reported Stabilization ratio associated with OT-hDHFRC-032: combination mutant hDHFR (Y122I, H131R, E144G) (protein, UniProt P00374 1-187, looked up, variant Y122I H131R E144G) Dihydrofolate reductase: MVGSLNCIVAVSQNMGIGKNGDLPWPPLRNEFRYFQRMTTTSSVEGKQNLVIMGKKTWFSIPEKNRPLKGRINLVLSRELKEPPQGAHFLSRSLDDALKLTEQPELANKVDMVWIVGGSSVIKEAMNHPGRLKLFVTRIMQDFGSDTFFPEIDLEKYKLLPEYPGVLSDVQEEKGIKYKFEVYEKND
1.03
